Values from ChEMBL document CHEMBL5150003

- EXPERIMENTAL PROTOCOL: Inhibition of migration of human HT-1080 cells at 100 uM measured by calcein AM/ethidium homodimer (EthD-1) staining method
- Type: functional
EXPERIMENTAL READOUT: inhibition at 100 µM

// worked examples, inhibition at 100 µM included
[
  {
    "MOLECULE": "N=C(N)Nc1ccc(OCCCOc2ccc(NC(=N)N)cc2NC(=N)N)c(NC(=N)N)c1",
    "inhibition at 100 µM": "< 40%"
  },
  {
    "MOLECULE": "N=C(N)Nc1ccc(O[C@H]2C[C@@H](Oc3ccc(NC(=N)N)c4ccccc34)[C@H](NC(=N)N)C[C@@H]2NC(=N)N)c(NC(=N)N)c1",
    "inhibition at 100 µM": "> 60%"
  }
]

Note to self: inhibition at 100 µM recorded for N=C(N)Nc1ccc(Oc2cccc(Oc3ccc(NC(=N)N)cc3NC(=N)N)c2)c(NC(=N)N)c1 was < 20%

Note to self: inhibition at 100 µM recorded for N=C(N)Nc1ccc(OC2CCCC(Oc3ccc(NC(=N)N)cc3NC(=N)N)C2)c(NC(=N)N)c1 (stereo not given) was < 40%

Note to self: inhibition at 100 µM recorded for N=C(N)Nc1ccc(OCCCOc2ccc(NC(=N)N)cc2)cc1 was < 40%
